System: Solenopsis invicta
Experiment: whole plant or invertebrate
Format: in vivo
Details: Solenopsis invicta, 24 h, read-out: Solenopsis invicta Mortality (%) 100 ppm 24 h, 100 ppm; 24 h; water test tube poison-feeding
Exercise: for every item that follows, state its recorded mortality at 100 ppm.
A number alone suffices; assume %.

Challenge: What does the record list as mortality at 100 ppm for C=CC1(CC(F)(F)F)Nc2cc(C#N)nn2-c2c(Cl)cc(C(F)(F)F)cc21 (centres unmarked) ?
Response given: 26

Challenge: Consider next the compound C=CC1(CC#N)Nc2c([S+](C)[O-])c(C#N)nn2-c2c(Cl)cc(C(F)(F)F)cc21 (centres unmarked) in the same way.
Response given: 20

Challenge: Further, for CSc1nn2c(c1C#N)NC(F)(C(F)(F)F)c1ccccc1-2 (centres unmarked) ?
Response given: 38

Challenge: Try this compound next: N#Cc1cn2c(c1C#N)NC(C#N)(C#N)c1ccc(Br)cc1-2
Response given: 38

Challenge: Thanks! And CSc1nn2c(c1S(=O)(=O)c1ccccc1)NC(C)(C)c1nc(F)ncc1-2 ?
Response given: 24

Challenge: Further, for C=CC(=O)Nc1ccc2c(c1)-n1cc(C#N)c(C#N)c1NC2(C#N)C#N ?
Response given: 45

Challenge: Further, for Cc1cc(-c2c(C#N)nn3c2NC(C(O)CO)(C(F)(F)F)c2cc(C(F)(F)F)cc(Cl)c2-3)c(C)o1 (centres unmarked) ?
Response given: 17

Challenge: How about CN1c2c(Br)c(C#N)nn2-c2ccccc2C1(C)C ?
Response given: 25

Challenge: Similarly, CNCC1(CC#N)Nc2c([S+](C)[O-])c(C(C)=O)nn2-c2c(Cl)cc(C(F)(F)F)cc21 (centres unmarked) ?
Response given: 20

Challenge: Moving on to CCOC(=O)c1c(SC)nn2c1NC(C)(C)c1nc(F)ncc1-2
Response given: 26

Challenge: What would you report for C=CCN1c2c(C#N)c(SC)nn2-c2ccccc2C1(F)C(F)(F)F (centres unmarked) ?
Response given: 28

Challenge: Also need C=CC1(C=C)Nc2c(Br)c(CC)nn2-c2c(Cl)cc(C(F)(F)F)cc21 , thanks.
Response given: 28

Challenge: Now the same for C=CC1(C(F)(F)F)Nc2c(-c3ccccc3C(F)(F)F)c(C#N)nn2-c2c(Cl)cc(C(F)(F)F)cc21 (centres unmarked)
Response given: 46

Challenge: Try this compound too: N#Cc1cnn2c1NC(F)(CN)c1ccc(Cl)cc1-2 (centres unmarked)
Response given: 30

Challenge: Now the same for CSc1nn2c(c1C(N)=O)NC(F)(C(F)(F)F)c1ccccc1-2 (centres unmarked)
Response given: 29

Challenge: Another compound to check: C=CC1(CCl)Nc2c([S+]([O-])CC)c(C#N)nn2-c2c(Cl)cc(C(F)(F)F)cc21 (centres unmarked)
Response given: 15

Challenge: And what about the compound C=CC1(CCl)Nc2c(-c3cc(C)oc3C)c(C#N)nn2-c2c(Cl)cc(C(F)(F)F)cc21 (centres unmarked) ?
Response given: 27

Challenge: Here is the next compound: C[S+]([O-])c1c(C#N)nn2c1NC(CO)(CC#N)c1cc(C(F)(F)F)cc(Cl)c1-2 (centres unmarked)
Response given: 20

Challenge: Item: N#CCC1(C(N)=O)Nc2c([S+]([O-])C(F)(F)F)c(C#N)nn2-c2c(Cl)cc(C(F)(F)F)cc21 (centres unmarked)
Response given: 25

Challenge: Proceed to N#CCC1(C(=O)O)Nc2c([S+]([O-])C(F)(F)F)c(C#N)nn2-c2c(Cl)cc(C(F)(F)F)cc21 (centres unmarked)
Response given: 24

Challenge: Try the compound CNC(=O)Nc1ccc2c(c1)-n1cc(C#N)c(C#N)c1NC2(C#N)C#N
Response given: 40

Challenge: Then this compound: CCOC(=O)c1c(SC)nn2c1NC(F)(C(F)(F)F)c1ccccc1-2 (centres unmarked)
Response given: 30

Challenge: Next compound: COC(=O)C1(CC#N)Nc2c([S+](C)[O-])c(C(C)=O)nn2-c2c(Cl)cc(C(F)(F)F)cc21 (centres unmarked)
Response given: 36

Challenge: Can you handle C=CC1(CC#N)Nc2c([S+]([O-])C(F)(F)F)c(C#N)nn2-c2c(Cl)cc(C(F)(F)F)cc21 (centres unmarked) next?
Response given: 28

Challenge: Query CS(=O)(=O)Nc1ccc2c(c1)-n1cc(C#N)c(C#N)c1NC2(C#N)C#N next
Response given: 30

Challenge: Next up: C=CC1(C(F)(F)F)Nc2c(-c3cc(C)oc3C)c(C#N)nn2-c2c(Cl)cc(C(F)(F)F)cc21 (centres unmarked)
Response given: 18

Challenge: Another compound: CC(=O)Nc1c(C#N)nn2c1NC(C)(C)c1ccccc1-2
Response given: 34

Challenge: Moving on to Cc1ccc(S(=O)(=O)Nc2c(C#N)nn3c2NC(C)(C)c2ccccc2-3)cc1
Response given: 26

Challenge: Record: CC[S+]([O-])c1c(C#N)nn2c1NC(CO)(CC#N)c1cc(C(F)(F)F)cc(Cl)c1-2 (centres unmarked)
Response given: 25

Challenge: Consider next the compound C=CC1(CC(F)(F)F)Nc2c(Br)c(C#N)nn2-c2c(Cl)cc(C(F)(F)F)cc21 (centres unmarked) in the same way.
Response given: 44

Challenge: // query: CC(=O)Nc1cc2n(n1)-c1cnccc1C(F)(CC(F)(F)F)N2 (centres unmarked)
Response given: 24

Challenge: Try the compound CCc1nn2c(c1-c1cc(C)sc1C)NC(/C=C\C(=O)OC)(/C=C/C(=O)OC)c1cc(C(F)(F)F)cc(Cl)c1-2 (centres unmarked)
Response given: 17

* * *

Would you kindly list Plutella xylostella Mortality (%) 500 ppm for each of these compounds?
Tested on: Plutella xylostella
Assay: whole plant or invertebrate
Type: in vivo
Details: 500 ppm; 2nd-instar larvae, leaf immersion feeding
Text: (1) Insecticidal Activity on 2nd-Instar Larvae of Plutella xylostella. Plutella xylostella (L.) is a lepidoptera pest with a chewing mouthpart and is a common vegetable pest. The 2nd-instar larvae of Plutella xylostella were used as test objects and tested by using a leaf immersion feeding method. […]
Just the number please, in %, no unit attached.

Challenge: What Plutella xylostella Mortality (%) 500 ppm value was documented for this compound, COC(=O)CC1(C(=O)OC)Nc2c(Cl)c(C#N)nn2-c2ncc(C(F)(F)F)cc21 (centres unmarked) ?
Response given: 100

Challenge: Same for C[S+]([O-])c1nn2c(c1C#N)NC(F)(C(F)(F)F)c1ccccc1-2 (centres unmarked)
Response given: 100

Challenge: Please give the result for COC(=O)C1Nc2c([S+]([O-])C(F)(F)F)c(C(F)(F)F)nn2-c2ncc(C(F)(F)F)cc21 (centres unmarked) too.
Response given: 96

Challenge: Thanks! And N#Cc1nn2c(c1[S+]([O-])C(F)(F)F)NC(C#N)(C#N)c1cc(C(F)(F)F)cnc1-2 (centres unmarked) ?
Response given: 100

Challenge: Consider next the compound CC(=O)CC1(C(=O)C(F)(F)F)Nc2c([S+]([O-])C(F)(F)F)c(C#N)nn2-c2ncc(C(F)(F)F)cc21 (centres unmarked) in the same way.
Response given: 100

Challenge: // same read-out, input: COC(=O)C1(CC#N)Nc2c([S+]([O-])C(F)(F)F)c(C#N)nn2-c2ncc(C(F)(F)F)cc21 (centres unmarked)
Response given: 97

Challenge: Next compound: COC(=O)CC1(C#N)Nc2c([S+]([O-])C(F)(F)F)c(C#N)nn2-c2ncc(C(F)(F)F)cc21 (centres unmarked)
Response given: 100

Challenge: Try this compound too: N#Cc1nn2c(c1[S+]([O-])C(F)(F)F)NC(Cl)(CBr)c1cc(C(F)(F)F)cnc1-2 (centres unmarked)
Response given: 100

* * *

Would you mind telling me the reported Spodoptera exigua Mortality (%) of each entry?
System: Spodoptera exigua
Assay: whole plant or invertebrate
Type: in vivo
Settings: 500 ppm; 2nd-instar larvae, leaf immersion feeding
Number only, in %; omit the unit.

Challenge: Tell me the measured Spodoptera exigua Mortality (%) of N#Cc1nn2c(c1[S+]([O-])C(F)(F)F)NC(CC(=O)C(F)(F)F)(C(=O)C(F)(F)F)c1cc(C(F)(F)F)cc(Cl)c1-2 (stereo not shown) , please.
Response given: 90

Challenge: Try this molecule too: [O-][S+](c1c(C(F)(F)F)nn2c1NC(Br)c1cc(C(F)(F)F)cc(Cl)c1-2)C(F)(F)F (stereo not shown)
Response given: 87

Challenge: Try the molecule CNC(=O)C1Nc2c([S+]([O-])C(F)(F)F)c(C(F)(F)F)nn2-c2c(Cl)cc(C(F)(F)F)cc21 (stereo not shown)
Response given: 85

Challenge: Next molecule: N#Cc1nn2c(c1[S+]([O-])C(F)(F)F)NC(CC(F)(F)F)(C(F)(F)F)c1cc(C(F)(F)F)cc(Cl)c1-2 (stereo not shown)
Response given: 86

Challenge: Now consider [O-][S+](c1c(C(F)(F)F)nn2c1NC(Br)c1c(Cl)cncc1-2)C(F)(F)F (stereo not shown) .
Response given: 96

Challenge: // same read-out, input: CCOC(=O)CC1(C(=O)OCC)Nc2c([S+]([O-])C(F)(F)F)c(C#N)nn2-c2c(C(F)(F)F)ccc(Cl)c21 (stereo not shown)
Response given: 100

Challenge: Another: N#Cc1nn2c(c1[S+]([O-])C(F)(F)F)NC(CCCl)(C(=O)C(F)(F)F)c1c(Cl)cc(C(F)(F)F)cc1-2 (stereo not shown)
Response given: 80
